# System: Ps. aeruginosa IFO3445
# Experiment Notes: Antibacterial activity (MIC), agar dilution
# Assay type: cell-based
# Study Conditions: Pseudomonas aeruginosa; Ps. aeruginosa IFO3445; 10^6 cells per ml; 37° C., 20 hours; read-out: MIC
# From the text: The amount of bacteria inoculated was 10^4 cells per plate (10^6 cells per ml).
Readout: MIC

INSERT INTO measurements (compound, result) VALUES
  ('Cc1cc(O)ccc1-n1cc(C(=O)O)c(=O)cc1-c1ccccc1', '6.25 µg/mL');

Here's the next entry for you.
Q) What reported MIC corresponds to Cc1cc(O)ccc1-n1cc(C(=O)O)c(=O)cc1CCc1ccccc1 on Ps. aeruginosa IFO3445?
A) 25 µg/mL
